Tested on: YT (IL-2 2.5 ng/mL)
Test: percent inhibition of viability; higher = more inhibition
Settings: 72 h; 0.1 nM
Below, each entry is listed with its recorded percent inhibition of viability.

compound="CC[C@]1(O)C[C@@H]2CN(CCc3c([nH]c4ccccc34)[C@@](C(=O)OC)(c3cc4c(cc3OC)N(C)[C@H]3[C@@](O)(C(=O)OC)[C@H](OC(C)=O)[C@]5(CC)C=CCN6CC[C@]43[C@@H]65)C2)C1 [Vinblastine] (max concentration tested 1000 nM)" readout="percent inhibition of viability" val=-6.33%
compound="CS(=O)(=O)CCNCc1ccc(-c2ccc3ncnc(Nc4ccc(OCc5cccc(F)c5)c(Cl)c4)c3c2)o1 [Lapatinib] (max concentration tested 1000 nM)" readout="percent inhibition of viability" val=-1.2%
compound="COc1cccc2c1C(=O)c1c(O)c3c(c(O)c1C2=O)C[C@@](O)(C(C)=O)C[C@@H]3O[C@H]1C[C@H](N)[C@H](O)[C@H](C)O1 [Daunorubicin] (max concentration tested 1000 nM)" readout="percent inhibition of viability" val=-3.13%
compound="CCS(=O)(=O)c1cccc(-c2cc(C(=O)NC3CCN(C)CC3)c(C)c3[nH]c4ncc(C)cc4c23)c1 [TAK-901] (max concentration tested 1000 nM)" readout="percent inhibition of viability" val=0.92%

The compound listed as COc1cc2c(Nc3ccc(Cl)c(Cl)c3F)ncnc2cc1OC[C@@H]1C[C@@H]2CN(C)C[C@@H]2C1 [XL-647] (max concentration tested 1000 nM) has a reported percent inhibition of viability of -6.35%

The compound listed as CNC(=O)c1cc(Oc2ccc(NC(=O)Nc3cc(C(C)(C)C)nn3-c3ccc4ncccc4c3)c(F)c2)ccn1 [Rebastinib] (max concentration tested 1000 nM) has a reported percent inhibition of viability of -4.61%

* * *

Tested on: normal primary NK cells, pool 2 (3 donors) (IL-2 2.5 ng/mL)
Test: percent inhibition of viability; higher = more inhibition
Conditions: 72 h; 1 nM
Below, each entry is listed with its recorded percent inhibition of viability.
Please reply with the bare figure in % and do not write the unit itself.

The compound listed as COc1cc([C@@H]2c3cc4c(cc3[C@@H](O[C@@H]3O[C@@H]5CO[C@@H](c6cccs6)O[C@H]5[C@H](O)[C@H]3O)[C@H]3COC(=O)[C@H]23)OCO4)cc(OC)c1O [Teniposide] (max concentration tested 10000 nM) has a reported percent inhibition of viability of -11.9

* * *

Test system: IMC-1 (IL-2 20 ng/mL)
Assay: drug sensitivity score (DSS) (DSS units); higher = more sensitive; extreme values may be limits of the assay
Settings: 72 h
readout: drug sensitivity score

Check out these entries, answers already filled in.
compound="COc1cc2c(cc1O)CC[C@@H]1[C@@H]2CC[C@]2(C)[C@@H](O)CC[C@@H]12 [2-methoxyestradiol] (max concentration tested 10000 nM)" val=12.8
compound="Cc1[nH]c(/C=C2\\C(=O)Nc3ccccc32)c(C)c1CCC(=O)O [Orantinib] (max concentration tested 10000 nM)" val=0.04
compound="C[C@@H]1C=C2C(=O)O[C@@H]3CC[C@H](C1)[C@]23O [Galiellalactone] (max concentration tested 25000 nM)" val=1.6
compound="CCOC(=O)CCNc1cc(N2CCc3ccccc3CC2)nc(-c2ccccn2)n1 [GSK-J4] (max concentration tested 100000 nM)" val=22.9
compound="COc1cc(Nc2ncc(F)c(Nc3ccc4c(n3)NC(=O)C(C)(C)O4)n2)cc(OC)c1OC [Tamatinib] (max concentration tested 10000 nM)" val=2.27
compound="CN(C)C/C=C/C(=O)Nc1cc2c(Nc3ccc(F)c(Cl)c3)ncnc2cc1O[C@H]1CCOC1 [Afatinib] (max concentration tested 1000 nM)" val=0

The compound listed as COc1cc2c(NC3CCN(C(C)C)CC3)nc(C3CCCCC3)nc2cc1OCCCN1CCCC1 [UNC0638] (max concentration tested 10000 nM) has a reported drug sensitivity score of 6.26

The compound listed as N#CC(c1ccnc(OCc2ccc(CN3CCOCC3)cc2)n1)c1nc2ccccc2s1 (centres undefined) [Bentamapimod] (max concentration tested 10000 nM) has a reported drug sensitivity score of 4.25

* * *

Test system: NKL (IL-2 2.5 ng/mL)
Assay: percent inhibition of viability; higher = more inhibition
Conditions: 72 h; 10000 nM
readout: percent inhibition of viability (%)
Please reply with the bare figure in % and do not write the unit itself.

The compound listed as CN(C)C(=O)c1cc2cnc(Nc3ccc(N4CCNCC4)cn3)nc2n1C1CCCC1 [NVP-LEE011] (max concentration tested 10000 nM) has a reported percent inhibition of viability of 47.9

The compound listed as C[C@H]1C[C@@H]2[C@H]([C@@H](O)C[C@@]3(C)[C@H]2CC[C@]3(O)C(=O)CO)[C@@]2(C)C=CC(=O)C=C12 [Methylprednisolone] (max concentration tested 10000 nM) has a reported percent inhibition of viability of 67.6

The compound listed as CN1CCN(c2cc(C(=O)Nc3ccc4c(c3)-c3c(c(C(N)=O)nn3-c3ccc(F)cc3)CC4)c(Cl)cn2)CC1 [PHA 408] (max concentration tested 10000 nM) has a reported percent inhibition of viability of 103

* * *

Tested on: NK-92 (IL-2 2.5 ng/mL)
Experiment: percent inhibition of viability; higher = more inhibition
Conditions: 72 h; 1 nM
Below, each entry is listed with its recorded percent inhibition of viability.
Please reply with the bare figure in % and do not write the unit itself.

compound="CN(c1ncccc1CNc1nc(Nc2ccc3c(c2)CC(=O)N3)ncc1C(F)(F)F)S(C)(=O)=O (max concentration tested 10000 nM)" readout="percent inhibition of viability" val=-15.3
compound="CC[C@]1(O)C[C@@H]2CN(CCc3c([nH]c4ccccc34)[C@@](C(=O)OC)(c3cc4c(cc3OC)N(C)[C@H]3[C@@](O)(C(=O)OC)[C@H](OC(C)=O)[C@]5(CC)C=CCN6CC[C@]43[C@@H]65)C2)C1 [Vinblastine] (max concentration tested 1000 nM)" readout="percent inhibition of viability" val=-1.18
compound="O=C(O)CC1CC(c2ccccc2)=NO1 (centres undefined) [VGX-1027] (max concentration tested 10000 nM)" readout="percent inhibition of viability" val=-3.95
compound="O=C(c1ccc(F)c(F)c1Nc1ccc(I)cc1F)N1CC(O)([C@@H]2CCCCN2)C1 [Cobimetinib] (max concentration tested 1000 nM)" readout="percent inhibition of viability" val=-14.3
compound="COc1cc2c(cc1O)CC[C@@H]1[C@@H]2CC[C@]2(C)[C@@H](O)CC[C@@H]12 [2-methoxyestradiol] (max concentration tested 10000 nM)" readout="percent inhibition of viability" val=-11.8
compound="C=CC(=O)Nc1cc2c(Nc3ccc(F)c(Cl)c3)ncnc2cc1OCCCN1CCOCC1 [Canertinib] (max concentration tested 10000 nM)" readout="percent inhibition of viability" val=3.42
compound="O=C(Nc1ccncc1)C(=O)c1cn(Cc2ccc(Cl)cc2)c2ccccc12 [Indibulin] (max concentration tested 10000 nM)" readout="percent inhibition of viability" val=-6.37
compound="CN(C)c1nc(N(C)C)nc(N(C)C)n1 [Altretamine] (max concentration tested 10000 nM)" readout="percent inhibition of viability" val=-14.2

The compound listed as CCS(=O)(=O)c1cccc(-c2cc(C(=O)NC3CCN(C)CC3)c(C)c3[nH]c4ncc(C)cc4c23)c1 [TAK-901] (max concentration tested 1000 nM) has a reported percent inhibition of viability of -16.9

* * *

Test system: IMC-1 (IL-2 20 ng/mL)
Test: percent inhibition of viability; higher = more inhibition
Conditions: 72 h; 10 nM
readout: percent inhibition of viability (%)
Please reply with the bare figure in % and do not write the unit itself.

compound="O=c1[nH]c(=O)n([C@H]2C[C@H](O)[C@@H](CO)O2)cc1F [Floxuridine] (max concentration tested 10000 nM)" unit_descriptor=% val=-1.68
compound="Cn1c(=O)c(F)c(Nc2ccc(I)cc2F)c2c(=O)n(C[C@@H](O)CO)cnc21 [TAK-733] (max concentration tested 1000 nM)" unit_descriptor=% val=0.58
compound="CN(C)C(=O)c1cc2cnc(Nc3ccc(N4CCNCC4)cn3)nc2n1C1CCCC1 [Ribociclib] (max concentration tested 10000 nM)" unit_descriptor=% val=-0.52
compound="CC(=O)NCC(=O)N1[C@@H]2CC[C@H]1c1ccc(Nc3ncc(C(F)(F)F)c(NC4CCC4)n3)cc12 (max concentration tested 10000 nM)" unit_descriptor=% val=-0.36
compound="CC(C)Oc1ccc(C(=O)N[C@H](CNC(=O)CN(C)C)Cc2ccc(-c3cn4cccc([C@H](C)O)c4n3)cc2)cc1Cl (max concentration tested 10000 nM)" unit_descriptor=% val=4.24

The compound listed as O=C(/C=C\n1cnc(-c2cc(C(F)(F)F)cc(C(F)(F)F)c2)n1)NNc1cnccn1 [Selinexor] (max concentration tested 10000 nM) has a reported percent inhibition of viability of 1.62

The compound listed as COc1cc(Nc2ncc(F)c(Nc3ccc4c(n3)NC(=O)C(C)(C)O4)n2)cc(OC)c1OC [Tamatinib] (max concentration tested 10000 nM) has a reported percent inhibition of viability of -0.95

The compound listed as NC(=O)c1ccc(I)c([N+](=O)[O-])c1 [Iniparib] (max concentration tested 10000 nM) has a reported percent inhibition of viability of 5.28

The compound listed as CCS(=O)(=O)c1cccc(-c2cc(C(=O)NC3CCN(C)CC3)c(C)c3[nH]c4ncc(C)cc4c23)c1 [TAK-901] (max concentration tested 1000 nM) has a reported percent inhibition of viability of -2.81

The compound listed as CNC(=O)c1ccc(N2C(=S)N(c3ccc(C#N)c(C(F)(F)F)c3)C(=O)C2(C)C)cc1F [Enzalutamide] (max concentration tested 10000 nM) has a reported percent inhibition of viability of 0.92

The compound listed as CCCOc1ccn2c(C(C)=O)cc(-c3ccccc3S(C)(=O)=O)c2c1 [GSK2801] (max concentration tested 10000 nM) has a reported percent inhibition of viability of -4

The compound listed as CNC(=O)c1cccc2cc(Oc3ccnc4cc(OCC5(N)CC5)c(OC)cc34)ccc12 [Lucitanib] (max concentration tested 10000 nM) has a reported percent inhibition of viability of 1.11
